Measured values drawn from patent US20030125336A1 for this set.

target: HIV protease mutant enzyme Q-60 (Human immunodeficiency virus type 1, UniProt P04585); experiment: inhibition of microbial expressed HIV protease (WO 01/05230), mutant enzyme Q-60; format: biochemical
pIC50: −log10 of the molar value.
Measured Endpoint: pIC50

Req: Give the reported pIC50 for this compound. `COc1cncc(-c2cnc(C(C)(C)N3CCN(C[C@@H](O)C[C@@H](Cc4ccccc4)C(=O)N[C@H]4c5ccccc5OC[C@H]4O)[C@H](C(=O)NCC(F)(F)F)C3)o2)c1`
Resp: > 8.30

###

molecular target: wild-type HIV protease (Human immunodeficiency virus type 1 group M subtype B, UniProt P04585)
Measured Endpoint: IC50

Req: Tell me IC50 reported for COc1cncc(-c2cnc(C(C)(C)N3CCN(C[C@@H](O)C[C@@H](Cc4ccccc4)C(=O)N[C@H]4c5ccccc5OC[C@H]4O)[C@H](C(=O)NCC(F)(F)F)C3)o2)c1 [Compound A]
Resp: < 1 nM
